# protocol.description: Cytotoxicity against CHO-K1 cells
# Assay type: cell-based, Cricetulus griseus
# conditions: chinese hamster
readout.type: CC50

Suppose we examine the compound `N#Cc1cccc(CNc2ccc3ncnc(Nc4ccc(F)c(Cl)c4)c3c2)c1` ; what CC50 value has been reported?
> 100 µM

----------
# protocol.description: Cytotoxicity against African green monkey Vero cells
# Type: cell-based
# conditions: chlorocebus sabaeus
readout.type: CC50

Suppose we examine the compound `N#Cc1cccc(CNc2ccc3ncnc(Nc4ccc(F)c(Cl)c4)c3c2)c1` ; what CC50 value has been reported?
> 100 µM

----------
# protocol.description: Cytotoxicity against mouse NIH/3T3 cells
# Format: cell-based, NIH3T3
readout.type: CC50

Suppose we examine the compound `N#Cc1cccc(CNc2ccc3ncnc(Nc4ccc(F)c(Cl)c4)c3c2)c1` ; what CC50 value has been reported?
> 100 µM

----------
# protocol.description: AUC in rat at 5 mg/kg, po
# Type: ADME, organism-based
# Parameters: dose 5 mg/kg
# conditions: in vivo
readout.type: AUC (ng·h/mL)
Record the value in ng·h/mL, omitting the unit from your answer.

Suppose we examine the molecule `N#Cc1cccc(CNc2ccc3ncnc(Nc4ccc(F)c(Cl)c4)c3c2)c1` ; what AUC value has been reported?
570

----------
# Tested on: Middle East respiratory syndrome-related coronavirus
# protocol.description: Antiviral activity against Middle East respiratory syndrome coronavirus MERS-CoV/KOR/KNIH/002_05_2015 infected in African green monkey Vero cells assessed as reduction in virus induced cytopathic effect after 24 hrs by immunofluorescence assay
# Format: functional, organism-based
# conditions: MERS-CoV/KOR/KNIH/002_05_2015, Vero
readout.type: log10 of IC50 (log10 of the value in µM)
Lab note - IC50 converted to log10 from values in µM.

query.smiles | log10 of IC50
N#Cc1ccc(CNc2ccc3ncnc(Nc4ccc(F)c(Cl)c4)c3c2)cc1 | 0.68
N#Cc1ccc(CNc2ccc3ncnc(Nc4ccc(C(F)(F)F)cc4)c3c2)cc1 | 0.61
COc1cccc(CNc2ccc3ncnc(Nc4ccc(Br)cc4)c3c2)c1 | 0.87

Suppose we examine the compound `COc1ccccc1CNc1ccc2ncnc(Nc3ccc(F)c(Cl)c3)c2c1` ; what log10 of IC50 value has been reported?
0.58

Also check `Fc1ccc(Nc2ncnc3ccc(NC4CCCCC4)cc23)cc1Cl`
1.18

Also check `COc1cccc(CNc2ccc3ncnc(Nc4ccc(C(F)(F)F)cc4)c3c2)c1`
0.26

Also check `O=[N+]([O-])c1ccc(CNc2ccc3ncnc(Nc4ccc(F)c(Cl)c4)c3c2)cc1`
0.43

Also check `COc1cccc(CNc2ccc3ncnc(Nc4ccc(F)c(Cl)c4)c3c2)c1`
0.75

Also check `N#Cc1cccc(CNc2ccc3ncnc(Nc4ccc(C(F)(F)F)cc4)c3c2)c1`
0.56

Also check `Fc1ccc(CNc2ccc3ncnc(Nc4ccc(F)c(Cl)c4)c3c2)cc1`
0.66

----------
# Tested on: Vero
# protocol.description: Cytotoxicity against African green monkey Vero cells infected with Middle East respiratory syndrome coronavirus MERS-CoV/KOR/KNIH/002_05_2015 assessed as reduction in cell viability
# Assay type: cell-based
# conditions: chlorocebus sabaeus
readout.type: CC50

query.smiles | readout.type | value.observed
N#Cc1cccc(CNc2cc3c(Nc4ccc(F)c(Cl)c4)ncnc3cc2O)c1 | CC50 | > 25 µM
COc1cccc(CNc2ccc3ncnc(Nc4cccc(Cl)c4)c3c2)c1 | CC50 | 23 µM
Fc1ccc(CNc2ccc3ncnc(Nc4ccc(F)c(Cl)c4)c3c2)cc1 | CC50 | 14.4 µM
Fc1ccc(CNc2ccc3ncnc(Nc4ccc(F)c(Cl)c4)c3c2)cc1F | CC50 | 23 µM
N#Cc1ccc(CNc2ccc3ncnc(Nc4ccc(C(F)(F)F)cc4)c3c2)cc1 | CC50 | > 25 µM
N#Cc1cccc(CNc2ccc3ncnc(Nc4ccc(C(F)(F)F)cc4)c3c2)c1 | CC50 | > 25 µM
Fc1ccc(Nc2ncnc3ccc(NC4CCCCC4)cc23)cc1Cl | CC50 | > 25 µM
COc1cccc(CNc2ccc3ncnc(Nc4ccc(F)c(Cl)c4)c3c2)c1 | CC50 | > 25 µM
COc1cccc(CNc2ccc3ncnc(Nc4ccc(C(F)(F)F)cc4)c3c2)c1 | CC50 | > 25 µM

For Vero, provide CC50 of `O=[N+]([O-])c1ccccc1CNc1ccc2ncnc(Nc3ccc(F)c(Cl)c3)c2c1` please.
> 25 µM
